# key: entry, value: switch fluorescence ratio
System: ATP;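 note: ATP exposure 15 min at 22 °C before imaging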
Assay: switch fluorescence ratio, 500 uM ATP over buffer (Cy3 cluster intensity, sum of 5 cycles each) (fold (ratio)); higher = stronger signal-on switching upon ATP binding; sequences stand for … in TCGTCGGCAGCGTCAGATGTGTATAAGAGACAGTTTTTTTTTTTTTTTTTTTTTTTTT…TC
Conditions: aptamer strand: ATP DNA aptamer (quencher-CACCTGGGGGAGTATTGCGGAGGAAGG + anchor), 100 nM annealed; ATP concentration: 500 uM
Write the number on its own, no unit after it.

GATTCATTAG = 0.992
TTTTAGGGAG = 0.992
TCGGTTGAAC = 1.01

Ask | State its switch fluorescence ratio: `ATAAGGGGGT`
Reply | 0.973

Ask | State its switch fluorescence ratio: `GACTTGGAAT`
Reply | 1

Ask | State its switch fluorescence ratio: `CGTGCGTGCT`
Reply | 1.01
